Test system: Escherichia coli TOP10
Test: shrunken log2 fold change of peptide-encoding DNA abundance (4.5 h post-induction vs induction); higher = less antimicrobial activity (less host growth inhibition)
Conditions: time post-induction: 4.5 h; library: site-saturation at positions 5, 18, 19, 20
Listed next: entries and their corresponding shrunken log2 fold change.

Examples with answers:
| MACROMOLECULE SEQUENCE | shrunken log2 fold change |
| --- | --- |
| RRIRTRPPRLPRPRPRPVTWPRP | -0.0681 |
| RRIRFRPPRLPRPRPRPYCCPRP | -0.324 |
| RRIRVRPPRLPRPRPRPFWKPRP | 0.0154 |
| RRIRNRPPRLPRPRPRPNNRPRP | 0.113 |
| RRIRQRPPRLPRPRPRPWSAPRP | -0.277 |
| RRIRQRPPRLPRPRPRPACIPRP | -0.165 |

Input "RRIRLRPPRLPRPRPRPMKNPRP" . Output shrunken log2 fold change: -0.303

Input "RRIRWRPPRLPRPRPRPSFYPRP" . Output shrunken log2 fold change: -0.328

Input "RRIRPRPPRLPRPRPRPQHYPRP" . Output shrunken log2 fold change: -0.675

Input "RRIRKRPPRLPRPRPRPHTNPRP" . Output shrunken log2 fold change: 0.192

Input "RRIRQRPPRLPRPRPRPRLCPRP" . Output shrunken log2 fold change: 0.423

Input "RRIRDRPPRLPRPRPRPLVFPRP" . Output shrunken log2 fold change: -0.0186

Input "RRIRFRPPRLPRPRPRPSLEPRP" . Output shrunken log2 fold change: -0.0776

Input "RRIRSRPPRLPRPRPRPERQPRP" . Output shrunken log2 fold change: 0.1

Input "RRIRFRPPRLPRPRPRPEIAPRP" . Output shrunken log2 fold change: -0.0213

* * *

Test system: Escherichia coli TOP10;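 further: peptides expressed intracellularly from a pBAD plasmid library in pooled LB shake-flask culture, induced with 0.3% L-arabinose, DNA abundance read by NGS, three biological replicates, DESeq2 with apeglm shrinkage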
Assay: shrunken log2 fold change of peptide-encoding DNA abundance (4.5 h post-induction vs induction); higher = less antimicrobial activity (less host growth inhibition)
Conditions: time post-induction: 4.5 h; library: site-saturation at positions 5, 18, 19, 20
Give true (1) when the value for shrunken log2 fold change is at least 0.07. Give false (0) when it is less.

| MACROMOLECULE SEQUENCE | EXPERIMENTAL TARGET | DISCRETE LABEL |
| --- | --- | --- |
| RRIRCRPPRLPRPRPRPDHPPRP | Escherichia coli TOP10 | true (1) |

Asked: Answer whether shrunken log2 fold change of "RRIRQRPPRLPRPRPRPLTKPRP" is greater than or equal to 0.07.
Given back: true (1)

Asked: Answer whether shrunken log2 fold change of "RRIRLRPPRLPRPRPRPYGTPRP" is greater than or equal to 0.07.
Given back: false (0)

Asked: Answer whether shrunken log2 fold change of "RRIRVRPPRLPRPRPRPPFYPRP" is greater than or equal to 0.07.
Given back: false (0)

Asked: Answer whether shrunken log2 fold change of "RRIRWRPPRLPRPRPRPQPIPRP" is greater than or equal to 0.07.
Given back: true (1)

Asked: Answer whether shrunken log2 fold change of "RRIRRRPPRLPRPRPRPWDAPRP" is greater than or equal to 0.07.
Given back: true (1)

Asked: Answer whether shrunken log2 fold change of "RRIRVRPPRLPRPRPRPGNKPRP" is greater than or equal to 0.07.
Given back: false (0)
